Data origin: patent US20240360228A1

Molecular target: T1, human chemokine (C-C motif) receptor 8 (CCR8) (human, UniProt P51685 1-355)
T1 construct: also called hCCR8
T1 sequence (P51685 whole entry): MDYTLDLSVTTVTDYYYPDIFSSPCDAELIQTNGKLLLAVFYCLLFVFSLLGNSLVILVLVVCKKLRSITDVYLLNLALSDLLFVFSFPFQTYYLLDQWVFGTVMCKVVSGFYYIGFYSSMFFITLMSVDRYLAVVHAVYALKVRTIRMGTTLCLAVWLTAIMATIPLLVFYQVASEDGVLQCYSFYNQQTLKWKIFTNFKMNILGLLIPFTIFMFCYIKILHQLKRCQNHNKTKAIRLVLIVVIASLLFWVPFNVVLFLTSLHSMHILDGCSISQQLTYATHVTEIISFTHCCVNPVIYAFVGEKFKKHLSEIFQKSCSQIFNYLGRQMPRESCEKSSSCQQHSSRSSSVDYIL
Test: flow cytometry blocking, human PBMC, CD3+ gate; % cells stained by competitor PE-L263G8 after block
measured-endpoint: % Positive cells (%)
Could you give me the number in %? Just the number is fine.

binder	measured-endpoint	numeric-readout
anti-CCR8 monoclonal antibody AB13 (antibody, V domains shown, Hybridoma monoclonal; also called antibody 13; clone 13) VH: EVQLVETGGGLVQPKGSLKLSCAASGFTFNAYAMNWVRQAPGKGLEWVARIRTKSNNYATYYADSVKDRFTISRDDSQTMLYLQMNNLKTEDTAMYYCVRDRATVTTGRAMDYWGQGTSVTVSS VL: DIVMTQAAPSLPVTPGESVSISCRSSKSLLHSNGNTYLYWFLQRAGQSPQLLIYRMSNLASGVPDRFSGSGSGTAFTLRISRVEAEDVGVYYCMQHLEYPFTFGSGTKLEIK	% Positive cells	4.68
anti-CCR8 monoclonal antibody AB5 (antibody, V domains shown, Hybridoma monoclonal; also called antibody 5; clone 5) VH: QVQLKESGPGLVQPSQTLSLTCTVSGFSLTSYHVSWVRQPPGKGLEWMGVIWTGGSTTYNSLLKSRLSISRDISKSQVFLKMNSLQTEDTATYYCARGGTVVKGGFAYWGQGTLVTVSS VL: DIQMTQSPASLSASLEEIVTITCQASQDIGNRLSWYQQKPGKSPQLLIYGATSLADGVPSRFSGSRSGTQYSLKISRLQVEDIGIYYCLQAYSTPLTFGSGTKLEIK	% Positive cells	7.17

Now, please, on to the next binder.
Can you share its % Positive cells? I mean this binder: anti-CCR8 monoclonal antibody AB8 (antibody, V domains shown, Hybridoma monoclonal; also called antibody 8; clone 8) VH: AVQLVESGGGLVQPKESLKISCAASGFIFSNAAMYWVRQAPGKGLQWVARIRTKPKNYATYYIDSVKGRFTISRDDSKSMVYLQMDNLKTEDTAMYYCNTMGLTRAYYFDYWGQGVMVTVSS VL: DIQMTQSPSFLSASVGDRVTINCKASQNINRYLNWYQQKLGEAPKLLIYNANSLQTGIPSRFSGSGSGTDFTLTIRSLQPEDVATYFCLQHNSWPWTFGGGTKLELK 0.44
